Target: Recombinant human TPH1 (MBP tagged) (Homo sapiens)
Construct: cloning full length human TPH1 cDNA in to a bacterial pMAL-c5E expression vector; made in house; host or cells: E. coli BL21 (DE3)
Sequence (P17752 1-444): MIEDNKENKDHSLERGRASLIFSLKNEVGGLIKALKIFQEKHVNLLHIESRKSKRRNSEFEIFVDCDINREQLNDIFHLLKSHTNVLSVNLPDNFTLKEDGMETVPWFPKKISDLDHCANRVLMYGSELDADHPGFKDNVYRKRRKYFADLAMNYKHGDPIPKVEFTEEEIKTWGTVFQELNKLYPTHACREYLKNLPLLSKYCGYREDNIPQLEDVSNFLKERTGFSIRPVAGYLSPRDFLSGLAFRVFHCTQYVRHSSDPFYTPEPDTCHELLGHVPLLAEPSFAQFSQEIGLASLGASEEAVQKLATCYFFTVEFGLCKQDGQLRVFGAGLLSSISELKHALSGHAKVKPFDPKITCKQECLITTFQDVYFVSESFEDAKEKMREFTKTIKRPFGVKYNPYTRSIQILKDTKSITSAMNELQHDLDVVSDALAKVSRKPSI
Assay: TPH1 in vitro inhibition assay (kinetic fluorescence)
Assay type: biochemical
Conditions: TPH1 Range (TPH1 inhibition IC50)
OBSERVABLE: IC50

q: Give IC50; test system Recombinant human TPH1 (MBP tagged) (Homo sapiens); molecule COc1ccc(-c2ccc([C@@H](Oc3cc(N4CCC5(CC4)CN[C@H](C(=O)O)C5)nc(N)n3)C(F)(F)F)c(-n3ccc(C)n3)c2)cc1
a: < 50 nM

q: Using Recombinant human TPH1 (MBP tagged) (Homo sapiens) as the test system, report measured IC50 of COc1cccc(-c2cc(Cl)ccc2[C@@H](Oc2cc(N3CCC4(CC3)CN[C@H](C(=O)O)C4)nc(N)n2)C(F)(F)F)c1 [Example 34y] .
a: < 50 nM

q: State recorded IC50 with Recombinant human TPH1 (MBP tagged) (Homo sapiens), entry Nc1nc(O[C@H](c2ccc(Cl)cc2-c2ccc(S(N)(=O)=O)cc2)C(F)(F)F)cc(N2CCC3(CC2)CN[C@H](C(=O)O)C3)n1 [Example 34ae] , no comment.
a: 300 to 3000 nM

q: Fill in IC50 for Nc1nc(O[C@H](c2ccc(Cl)cc2-c2cc(F)cc(Cl)c2)C(F)(F)F)cc(N2CCC3(CC2)CN[C@H](C(=O)O)C3)n1 [Example 34an] tested with Recombinant human TPH1 (MBP tagged) (Homo sapiens).
a: < 50 nM

q: Jot down IC50 (Recombinant human TPH1 (MBP tagged) (Homo sapiens)) of CS(=O)(=O)Nc1cccc(-c2cc(Cl)ccc2[C@@H](Oc2cc(N3CCC4(CC3)CN[C@H](C(=O)O)C4)nc(N)n2)C(F)(F)F)c1 [Example 34n] .
a: 50 to 300 nM

q: Write down the reported IC50 (system: Recombinant human TPH1 (MBP tagged) (Homo sapiens)) of Cn1ncc2cc(-c3ccc([C@@H](Oc4cc(N5CCC6(CC5)CN[C@H](C(=O)O)C6)nc(N)n4)C(F)(F)F)cc3)ccc21 [Example 55b]
a: < 50 nM

====

Target: Recombinant human TPH1 (MBP tagged) (Homo sapiens)
Construct: cloning full length human TPH1 cDNA in to a bacterial pMAL-c5E expression vector; made in house; host or cells: E. coli BL21 (DE3)
Experiment: TPH1 in vitro inhibition assay (kinetic fluorescence)
Format: biochemical
Conditions: read-out: TPH1 Range (TPH1 inhibition IC50)
OBSERVABLE: IC50

q: // Input: Nc1nc(O[C@H](c2ccc(-c3ccc(Cl)cc3)cc2)C(F)(F)F)cc(N2CCC3(CC2)CN[C@H](C(=O)O)C3)n1 [Example 55cy] . Output its IC50 only.
a: 300 to 3000 nM

q: Fill in reported IC50 for this entry: CCOC(=O)c1ccc(-n2ccc(C)n2)c([C@@H](Oc2cc(N3CCC4(CC3)CN[C@H](C(=O)O)C4)nc(N)n2)C(F)(F)F)c1 [Example 23]
a: < 50 nM

q: Please report the measured IC50 for Nc1nc(O[C@H](c2ccc(-c3ccc4c(c3)OC(=O)CC4)cc2)C(F)(F)F)cc(N2CCC3(CC2)CN[C@H](C(=O)O)C3)n1 [Example 55db]
a: 300 to 3000 nM

q: Quickly give me recorded IC50 for CCOc1ccc(-c2ccc([C@@H](Oc3cc(N4CCC5(CC4)CN[C@H](C(=O)O)C5)nc(N)n3)C(F)(F)F)c(-n3ccc(C)n3)c2)cc1F [Example 1bn]
a: < 50 nM

q: Input CCOC(=O)c1ccc(-c2ccc([C@@H](Oc3cc(N4CCC5(CC4)CN[C@H](C(=O)O)C5)nc(C)n3)C(F)(F)F)c(-n3ccc(C)n3)c2)cc1 [Example 29i] , output reported IC50.
a: < 50 nM

q: Give the measured IC50 for Cc1ccn(-c2cc(Cl)ccc2[C@@H](Oc2cnnc(N3CCC4(CC3)CN[C@H](C(=O)O)C4)c2)C(F)(F)F)n1 [Example 43]
a: 3000 to 10000 nM

====

Exercise: state measured pIC50 for each of the compounds provided.
Biological target: Recombinant human TPH1 (MBP tagged) (Homo sapiens)
Construct: cloning full length human TPH1 cDNA in to a bacterial pMAL-c5E expression vector; made in house; host or cells: E. coli BL21 (DE3)
Assay: TPH1 in vitro inhibition assay (kinetic fluorescence)
Type: biochemical
Settings: read-out: TPH1 Range (TPH1 inhibition IC50)
pIC50: −log10 of the molar value.

q: Enter measured pIC50, system Recombinant human TPH1 (MBP tagged) (Homo sapiens), for the compound shown: Cc1ccn(-c2cc(-c3cccc(C(N)=O)c3)ccc2[C@@H](Oc2cc(N3CCC4(CC3)CN[C@H](C(=O)O)C4)nc(N)n2)C(F)(F)F)n1
a: 6.52 to 7.30

q: State pIC50 on Recombinant human TPH1 (MBP tagged) (Homo sapiens). Entry: Cc1cc(-c2cc(Cl)ccc2[C@@H](Oc2cc(N3CCC4(CC3)CN[C@H](C(=O)O)C4)nc(N)n2)C(F)(F)F)cc(C)c1Cl [Example 34bc]
a: 6.52 to 7.30

q: Output reported pIC50 of the compound Nc1nc(O[C@H](c2ccc(-c3ccc(O)cc3)cc2)C(F)(F)F)cc(N2CCC3(CC2)CN[C@H](C(=O)O)C3)n1 [Example 55cb] on Recombinant human TPH1 (MBP tagged) (Homo sapiens).
a: 6.52 to 7.30

====

Biological target: Recombinant human TPH1 (MBP tagged) (Homo sapiens)
Construct: cloning full length human TPH1 cDNA in to a bacterial pMAL-c5E expression vector; made in house; host or cells: E. coli BL21 (DE3)
Experiment: TPH1 in vitro inhibition assay (kinetic fluorescence)
Assay type: biochemical
Conditions: TPH1 Range (TPH1 inhibition IC50)
Experimental: Recombinant human TPH1 (rTPH1 GenBank™ accession no. NP_004179) was expressed by cloning full length human TPH1 cDNA in to a bacterial pMAL-c5E expression vector to produce maltose-binding protein (MBP) TPH1 fusion proteins. […] TPH1 activities were measured in an assay containing 200 mM ammonium sulfate, 7 mM DTT, 50 μg/mL catalase, 25 μM ammonium iron sulfate, 50 mM MES, pH 7.1. […] Fluorescence reads are recorded in kinetic mode for 300 seconds (5 minutes). […]
pIC50: −log10 of the molar value.
Kindly state pIC50 for each of the entries shown.

q: // fetch pIC50 given entry CSc1ccc2cc(-c3ccc([C@@H](Oc4cc(N5CCC6(CC5)CN[C@H](C(=O)O)C6)nc(N)n4)C(F)(F)F)cc3)ccc2n1 [Example 55ai]
a: > 7.30

q: Answer with the recorded pIC50 for the molecule listed here: Nc1nc(O[C@H](c2ccc(Cl)cc2-c2cc(F)cc(F)c2)C(F)(F)F)cc(N2CCC3(CC2)CN[C@H](C(=O)O)C3)n1 [Example 34au]
a: > 7.30

q: Specify pIC50 for N#Cc1cccc(-c2cc(Cl)ccc2[C@@H](Oc2cc(N3CCC4(CC3)CN[C@H](C(=O)O)C4)nc(N)n2)C(F)(F)F)c1 [Example 34x] and stop.
a: > 7.30

q: Report pIC50, nothing else, for this molecule: Nc1nc(O[C@@H](c2ccc(Cl)cc2-c2ccccc2)C(F)(F)F)cc(N2CCC3(CC2)CN[C@H](C(=O)O)C3)n1 [Example 54j]
a: 6.52 to 7.30

q: Return value of pIC50 for input Nc1nc(O[C@H](c2ccc(-c3ccc4[nH]ncc4c3)cc2)C(F)(F)F)cc(N2CCC3(CC2)CN[C@H](C(=O)O)C3)n1 [Example 55w] , no commentary.
a: > 7.30

q: Return the recorded pIC50 value; entry: Cc1ccn(-c2cc(-c3ccc(C)c(C)c3)ccc2[C@@H](Oc2cc(N3CCC4(CC3)CN[C@H](C(=O)O)C4)nc(N)n2)C(F)(F)F)n1 [Example 1m]
a: > 7.30

q: Provide only the value of recorded pIC50 for Cc1cc(-c2cc(Cl)ccc2[C@@H](Oc2cc(N3CCC4(CC3)CN[C@H](C(=O)O)C4)nc(N)n2)C(F)(F)F)ccc1Cl [Example 34at]
a: 6.52 to 7.30

q: Return pIC50 for the following molecule: NC(=O)c1cccc(-c2cc(Cl)ccc2[C@@H](Oc2cc(N3CCC4(CC3)CN[C@H](C(=O)O)C4)nc(N)n2)C(F)(F)F)c1 [Example 34ac]
a: > 7.30

q: # return recorded pIC50 for input CC(C)(C)c1cccc(-c2cc(Cl)ccc2[C@@H](Oc2cc(N3CCC4(CC3)CN[C@H](C(=O)O)C4)nc(N)n2)C(F)(F)F)c1 [Example 34bq]
a: 6.52 to 7.30

q: Tell me pIC50 reported for Nc1nc(O[C@H](c2ccc(Cl)cc2-c2cccc(C(F)(F)F)c2)C(F)(F)F)cc(N2CCC3(CC2)CN[C@H](C(=O)O)C3)n1 [Example 34q]
a: > 7.30

q: Fill in pIC50 for record CC(C)(C)c1cccc(-c2cc(Cl)ccc2[C@@H](Oc2cc(N3CCC4(CC3)CN[C@H](C(=O)O)C4)nc(N)n2)C(F)(F)F)c1 [Example 34ao]
a: > 7.30

q: Read the entry Nc1nc(O[C@@H](c2ccc(Cl)cc2-c2ccccc2)C(F)(F)F)cc(N2CCC3(CC2)CN[C@@H](C(=O)O)C3)n1 [Example 54i] and write its reported pIC50.
a: 5.00 to 5.52
